Source: the supplement of paper PMC4977894

Tested on: Homo sapiens (human subject panel, olfactory perception)
Assay: perceived odor intensity rating (rating 0-100); higher = stronger perceived smell
Details: odor dilution in paraffin oil: 1/1,000
Quick reference for perceived odor intensity rating among some compounds
No unit in the answer, only the number.

Worked cases, perceived odor intensity rating given:
>  <compound>
CC/C=C\CCCCO [cis-5-Octen-1-ol]

>  <perceived odor intensity rating>
75.7

$$$$
>  <compound>
CCCCCCCC(=O)O

>  <perceived odor intensity rating>
68.6

$$$$

Req: Which perceived odor intensity rating is reported for this compound? CC=Cc1ccc(OC(=O)Cc2ccccc2)c(OC)c1 [Isoeugenyl phenylacetate]
Resp: 78.7

Req: Request the reported perceived odor intensity rating associated with N[C@@H](CCC(=O)O)C(=O)O
Resp: 29.8

Req: Which value of perceived odor intensity rating has been reported for CCCCCC/C=C/C(C)=O in the records?
Resp: 65.4

Req: Using the record for CCCC(C)C(=O)OCC (configuration not stated) [Ethyl 2-methylpentanoate (replicate)] , report its perceived odor intensity rating.
Resp: 52.1

Req: Give the measured perceived odor intensity rating of CC(=O)c1nccs1 .
Resp: 80

Req: Any idea what perceived odor intensity rating was measured for CCC(O)CC ?
Resp: 76.4

Req: Query: perceived odor intensity rating; subject: COc1nccnc1C
Resp: 87.9

Req: Would you kindly share the measured perceived odor intensity rating for CCCC(O)CC (configuration not stated) [3-hexanol] ?
Resp: 71.3

Req: Returns the measured perceived odor intensity rating for the input compound. Input: C1CCCCC1
Resp: 49

Req: # perceived odor intensity rating lookup, item CSCCCN=C=S [3-(Methylthio)propyl isothiocyanate]
Resp: 82.7

----------
perceived odor intensity rating values by entry
System: Homo sapiens (human subject panel, olfactory perception)
Test: perceived odor intensity rating (rating 0-100); higher = stronger perceived smell
Conditions: odor dilution in paraffin oil: 1/10
Structures can show the parent of a compound that is named as a salt.
No unit in the answer, please; the number alone is enough.

As a guide, the following entries are already answered.
>  <compound>
NCCc1ccc(O)cc1

>  <perceived odor intensity rating>
53.2

$$$$
>  <compound>
Cc1ccc2oc(=O)ccc2c1

>  <perceived odor intensity rating>
80.1

$$$$
>  <compound>
CCCCCCOC(=O)c1ccccc1 [Hexyl benzoate (replicate)]

>  <perceived odor intensity rating>
71.5

$$$$
>  <compound>
II

>  <perceived odor intensity rating>
77.7

$$$$
>  <compound>
COc1ccc2ccccc2c1

>  <perceived odor intensity rating>
82.7

$$$$
>  <compound>
CC(C)C(=O)OCCOc1ccccc1 [2-Phenoxyethyl isobutyrate]

>  <perceived odor intensity rating>
58.7

$$$$
>  <compound>
C/C=C/C=C/COC(C)=O [trans,trans-2,4-Hexadienyl acetate (replicate)]

>  <perceived odor intensity rating>
19.1

$$$$
>  <compound>
CC(=O)OC(C)(C)Cc1ccccc1 [alpha,alpha-Dimethylphenethyl acetate]

>  <perceived odor intensity rating>
79

$$$$
>  <compound>
CCOC=O [Ethyl formate]

>  <perceived odor intensity rating>
51.6

$$$$
>  <compound>
COC(C)=O [methyl acetate]

>  <perceived odor intensity rating>
66.2

$$$$

Req: Any idea what perceived odor intensity rating was measured for CCCCC(C)CCC(=O)O (racemic) [(±)-4-Methyloctanoic acid] ?
Resp: 72.5

----------
Test system: Homo sapiens (human subject panel, olfactory perception)
Assay: perceived odor intensity rating (rating 0-100); higher = stronger perceived smell
Settings: odor dilution in paraffin oil: 1/1,000
assayMetric: perceived odor intensity rating
Format: numeric value only, no unit, no commentary.

Worked cases, perceived odor intensity rating given:
>  <compound>
CCCC(O)CC(=O)OCC (stereo not given) [ethyl-3-hydroxyhexanoate]

>  <perceived odor intensity rating>
60.3

$$$$
>  <compound>
CCCCCCCCCCC(=O)O [Undecanoic acid]

>  <perceived odor intensity rating>
57.4

$$$$
>  <compound>
O=C(OCCc1ccccc1)c1ccccc1 [Phenethyl benzoate]

>  <perceived odor intensity rating>
19.6

$$$$
>  <compound>
COc1cncc(C(C)C)n1 [2-Methoxy-3(5 or 6)-isopropylpyrazine]

>  <perceived odor intensity rating>
80.8

$$$$

Req: Could you tell me which perceived odor intensity rating is on file for O=C(OCCc1ccccc1)c1ccccc1O [Phenethyl salicylate] ?
Resp: 17.8

----------
Tested on: Homo sapiens (human subject panel, olfactory perception)
Assay: perceived odor intensity rating (rating 0-100); higher = stronger perceived smell
Settings: odor dilution in paraffin oil: 1/10
Parameter threshold = 70. Response is label 1 when perceived odor intensity rating meets or exceeds it, else label 0.

// known answers, use as guide
>  <compound>
O=C(OCc1ccccc1)c1ccccc1 [Benzyl benzoate]

>  <assignedLabel>
label 0

$$$$
>  <compound>
COc1cc(C(=O)O)ccc1O [4-hydroxy-3-methoxybenzoic acid]

>  <assignedLabel>
label 0

$$$$
>  <compound>
CCCCC/C=C\C/C=C\CCCCCCCC(=O)O [Linoleic acid]

>  <assignedLabel>
label 1

$$$$
>  <compound>
CC(C)[C@H](N)C(=O)O

>  <assignedLabel>
label 0

$$$$
>  <compound>
NCC(=O)O

>  <assignedLabel>
label 0

$$$$

Req: Assess whether reported perceived odor intensity rating for Cc1nc(C)c(C)nc1C sits at 70 or higher.
Resp: label 1

Req: hey, is perceived odor intensity rating for this one >= 70? CCCCCCCC
Resp: label 0

Req: Hello, I need to know if CC1CCC(=O)C1=O (stereo not drawn) has measured perceived odor intensity rating not below 70. Thanks!
Resp: label 1

----------
Entries annotated with measured perceived odor intensity rating
Tested on: Homo sapiens (human subject panel, olfactory perception)
Test: perceived odor intensity rating (rating 0-100); higher = stronger perceived smell
Conditions: odor dilution in paraffin oil: 1/1,000
Field format: numeric only.

>  <molecule>
CC(=O)C(=O)O

>  <assayValue>
70.6

$$$$
>  <molecule>
COc1ccc(C=O)cc1

>  <assayValue>
71.2

$$$$

Req: Observed perceived odor intensity rating on Homo sapiens (human subject panel, olfactory perception) for CCCCC(C)O (stereo not drawn) , please.
Resp: 71.9

----------
Let's look at some compounds and their measured perceived odor intensity rating.
Test system: Homo sapiens (human subject panel, olfactory perception)
Experiment: perceived odor intensity rating (rating 0-100); higher = stronger perceived smell
Details: odor dilution in paraffin oil: 1/1,000

Reference set (5 entries):
>  <compound>
CC(=O)c1ccccc1N

>  <perceived odor intensity rating>
71.9

$$$$
>  <compound>
COC(=O)Cc1ccccc1 [Methyl phenylacetate]

>  <perceived odor intensity rating>
69.1

$$$$
>  <compound>
C=CCCCCO

>  <perceived odor intensity rating>
62.2

$$$$
>  <compound>
CC(=O)OC(C)(C)Cc1ccccc1 [alpha,alpha-Dimethylphenethyl acetate]

>  <perceived odor intensity rating>
36.6

$$$$
>  <compound>
C[S+](C)[O-] [Methyl sulfoxide]

>  <perceived odor intensity rating>
35.3

$$$$

Req: State its perceived odor intensity rating on Homo sapiens (human subject panel, olfactory perception): COC(=O)CSC [Methyl (methylthio)acetate]
Resp: 81.7

Req: Notebook: pull reported perceived odor intensity rating for Homo sapiens (human subject panel, olfactory perception), entry O=C(O)[C@@H]1CCCN1
Resp: 60.2

----------
perceived odor intensity rating values by entry
Test system: Homo sapiens (human subject panel, olfactory perception)
Assay: perceived odor intensity rating (rating 0-100); higher = stronger perceived smell
Conditions: odor dilution in paraffin oil: 1/1,000
Please state the value as a number alone, without comment.

Below, 3 molecules whose answers are already recorded.
>  <molecule>
Cc1ccc(O)cc1

>  <assayMetric>
perceived odor intensity rating

>  <assayValue>
79

$$$$
>  <molecule>
N[C@@H](Cc1ccccc1)C(=O)O

>  <assayMetric>
perceived odor intensity rating

>  <assayValue>
30.1

$$$$
>  <molecule>
CCC(=O)OC [Methyl Propionate]

>  <assayMetric>
perceived odor intensity rating

>  <assayValue>
38.7

$$$$

Please find the next molecule below.
Req: Request - read-out perceived odor intensity rating | tested on Homo sapiens (human subject panel, olfactory perception) | molecule CCc1cnccn1
Resp: 80

----------
Test system: Homo sapiens (human subject panel, olfactory perception)
Assay: perceived odor intensity rating (rating 0-100); higher = stronger perceived smell
Conditions: odor dilution in paraffin oil: 1/1,000
Reported perceived odor intensity rating values follow for various compounds

>  <compound>
COC1=C(C)OC(C)C1=O (stereo not given) [2,5-Dimethyl-4-methoxy-3(2H)-furanone]

>  <assayValue>
74.8

$$$$
>  <compound>
c1ccccc1 [Benzene]

>  <assayValue>
11.2

$$$$
>  <compound>
CC/C=C\CCOC(C)=O [cis-3-hexenyl acetate]

>  <assayValue>
76.7

$$$$
>  <compound>
CCCCCCOC(=O)c1ccccc1 [Hexyl benzoate]

>  <assayValue>
40.7

$$$$
>  <compound>
CCC1(O)C2(C)CCC(C2)C1(C)C (stereo not given) [2-Ethylfenchol]

>  <assayValue>
73.6

$$$$
>  <compound>
CCCOC(=O)CCC [propyl butyrate]

>  <assayValue>
64.7

$$$$
>  <compound>
CCOC(C)OCC [Acetal]

>  <assayValue>
48.7

$$$$
>  <compound>
c1cscn1 [Thiazole]

>  <assayValue>
25.1

$$$$
>  <compound>
CCCC(=O)SC [Methyl thiobutyrate]

>  <assayValue>
92.4

$$$$
>  <compound>
CC=Cc1ccc(OC(C)=O)c(OC)c1 [isoeugenol acetate]

>  <assayValue>
46.1

$$$$

Req: Field request: perceived odor intensity rating | item: CCCCCCCCCC(=O)O [decanoic acid]
Resp: 50.2

Req: Find the recorded perceived odor intensity rating belonging to CCCCCCOC(=O)CCC [hexyl butyrate] and report it.
Resp: 45.6

Req: Could you tell me which perceived odor intensity rating is on file for CCCCCCCOC(C)=O [heptyl acetate] ?
Resp: 37.1
